- Tested on: A498 renal
- Method Notes: NCI-60 one-dose screen, 48 h (100 = growth as untreated, 0 = no growth, -100 = all killed)
- Setup Conditions: 10 µM unless noted
Compounds without any hit were thinned out: in the full panel of roughly 83,000, 20% have a hit.
Measurement Name: growth (%)
Write down the numeric answer in % and omit the unit.

Examples with answers:
| Compound | growth [%] |
| --- | --- |
| CCCCCCCCCCCCCCCCOP(=O)([O-])OCC[N+](C)(C)C | 3.51 |
| N#CSCc1ccc(CSC#N)c(Cl)c1 | 91.9 |

*Q* Request the reported growth associated with "CCOC(=O)c1c(C)[nH]c(CO)c1C"
*A* 107

*Q* Request the reported growth associated with "Cc1c2ccccc2c(C)c2c1ccc1ccccc12"
*A* 81.1

*Q* Request the reported growth associated with "Cc1ccc2c(ccc3c[n+]4c5ccccc5ccc4n32)c1"
*A* 16

*Q* Request the reported growth associated with CCCCCCCCCCCCCCCC[N+](C)(CCO)Cc1cnc[nH]1 (stereo not drawn)
*A* -5.4

*Q* Request the reported growth associated with "CNC(=O)N/N=C/c1ccc([N+](=O)[O-])o1"
*A* 102

*Q* Request the reported growth associated with "CNc1ccc(N)cc1"
*A* 120

*Q* Request the reported growth associated with O=C(/C=C\c1ccccc1)N1c2ccccc2CC1c1c[nH]c2ccccc12 (stereo not drawn)
*A* 54.2

*Q* Request the reported growth associated with "C=C(Cl)C(=NC(C)(C)C)Nc1ccccc1C"
*A* 105
